# assay_method_text: NCI Yeast Anticancer Drug Screen. Data for the mlh1 rad18 strain (AID 175)
# particulars: S. cerevisiae mlh1 rad18 strain growth inhibition; at 5.0 µM (retest, dose inferred, filed as 0.5); hits give high values
Compounds without any hit were thinned out: in the full panel of roughly 79,000, 15% have a hit. Calls of active or inactive are those of the source. No stated cut-off is given here; in the data, active means growth inhibition above about 70%; inactive means the rest.
Here the recorded growth inhibition is given for each entry.

COc1cc(C(C)(C)C)cc(OC)c1C(O)(c1c(OC)cc(C(C)(C)C)cc1OC)c1c(OC)cc(C(C)(C)C)cc1OC | 15% (inactive)
O=C(O)/C=C\C(=O)NNc1ccc(Br)cc1 | 27% (inactive)
O=C1C=CC(=Nc2ccc3c(c2)Cc2cc(Cl)ccc2-3)O1 | 32% (inactive)
CCOc1ccc2ccc3cccnc3c2n1 | 2% (inactive)

Proceed to the following item.
// query Which growth inhibition value is on record for O=[N+]([O-])C(=C(NCc1ccccc1)NCc1ccccc1)C(Cl)=C(Cl)Cl ?
// result 12% (inactive)

###

Examples of molecules with documented growth inhibition follow.
# assay_method_text: NCI Yeast Anticancer Drug Screen. Data for the mlh1 strain (AID 171);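 further: 0% = growth of vehicle-treated control cultures of the same strain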
# particulars: S. cerevisiae mlh1 strain growth inhibition; at 100.0 µM; hits give high values
About 79,000 compounds went through this panel and 15% of them were active in at least one assay; those are over-represented in the sample as a whole.
Reply with just the number (in %).

O=C1c2ccc(O)cc2C(=O)c2c(O)ccc(O)c21 | 91
CC(C)(C)[Si](C)(C)OCC1OC(n2cnc3c(N)ncnc32)C2OC(=S)OC12 (stereo not drawn) | 37
CN(C)N=Nc1ccc(NC=O)cc1 | 99
O=C(O)CN(CCNC(=O)OCC1c2ccccc2-c2ccccc21)CCNC(=O)OCC1c2ccccc2-c2ccccc21 | 96
Cc1cccc(N2CCN(C(=O)/C(=C/c3ccccc3)NC(=O)c3ccccc3)CC2)c1 | 48

// query If you can, please state the reported growth inhibition value of Nc1cccc2cc(Cl)cnc12 .
// result 49

// query Any idea what its growth inhibition is? The molecule is C=Cc1c(C)c(O)cc2c1-c1ccc(O)c(C)c1CC2
// result 99

// query So what's the measured growth inhibition for this one? Cc1nc2ccc(Br)cc2c(=O)n1-c1ccc(NC2OCC(O)C(O)C2O)cc1 (stereo not drawn)
// result 90

// query Using the record for O=Cc1ccccc1B(O)O , report its growth inhibition.
// result 99

###

Below, each entry is listed alongside its reported growth inhibition.
# assay_method_text: NCI Yeast Anticancer Drug Screen. Data for the mgt1 strain (AID 153)
# particulars: S. cerevisiae mgt1 mutant growth inhibition; at 3.7 µM; hits give high values
About 79,000 compounds went through this panel and 15% of them were active in at least one assay; those are over-represented in the sample as a whole.
Provide the reading as a plain figure in %.

COc1ccc2c(Cc3c4ccccc4cc4ccccc34)cncc2c1O | 6

// query // lookup growth inhibition for O=C(O)[C@H]1[C@@H](C2CCCCC2)O[C@@H](C2CCCCC2)O[C@H]1C(F)(F)F
// result -4

// query Requested read-out: growth inhibition. Entry: O=C1c2ccc(O)cc2C(=O)c2c(O)ccc(O)c21
// result 10

// query If you can, please state the reported growth inhibition value of Cc1nc2ccc(NCCN(C)C)c3c(=O)c4ccccc4n1c23 .
// result 31

// query Which growth inhibition is listed for Oc1ccc(Br)cc1C=Nc1cccc(C(F)(F)F)c1 ?
// result 21

// query Reported growth inhibition, molecule CN(C)N=Nc1ccc(NC=O)cc1 : ____
// result 27

// query Could you tell me which growth inhibition is on file for CC(C)OC(CCC#N)c1ccc(Cl)cc1 (configuration not stated) ?
// result -44

// query // lookup growth inhibition for O=c1[nH]c(=O)n(CCCO)cc1F
// result -31

// query Quick check: growth inhibition of C=Cc1c(C)c(O)cc2c1-c1ccc(O)c(C)c1CC2 ?
// result -1
